Target: human IDO1 protein (Homo sapiens)
Construct: purchased ChemPartner Lot; No. 20160706
Test: Enzymatic IDO1 assay (Absorbance 321 assay)
Assay type: biochemical
Details: background signal of the compound in the absorbance assay
Recorded Background (%) by entry
experimental-readout: Background (%)

>>> measurement("CC(=O)c1[nH]c2ccccc2c1C(C)=O [DCI-053]")
43.33
>>> measurement("Cc1ccc(C)c(C(=O)CSc2ncnc3nc[nH]c23)c1 [DCI-013]")
38.66
>>> measurement("O=C(Cc1coc2ccc3ccccc3c12)N1CCCC1 [DCI-095]")
43.56
>>> measurement("Cc1ccccc1C(=O)Oc1ccc2ccc(O)cc2c1 [DCI-076]")
40.50
>>> measurement("Nc1ccccc1/C=C1/C(=O)Nc2ccccc21 [DCI-009]")
52.98
>>> measurement("COc1ccc(/C=C\\c2nccc3ccccc23)cc1OC [DCI-011]")
51.96
>>> measurement("Cc1sc2nn[nH]c(=O)c2c1C [DCI-027]")
56.25
>>> measurement("COc1ccc2ccccc2c1CNc1ncn[nH]1 [DCI-092]")
40.57
>>> measurement("COc1ccc(C(=O)c2c[nH]cc2-c2ccccc2)cc1 [DCI-059]")
49.85
>>> measurement("O=C(NCCCNC(=O)c1cc2ccccc2[nH]1)c1ccc(F)cc1 [DCI-034]")
42.24
>>> measurement("COc1ccc2ccccc2c1/C=N/NC(N)=S [DCI-084]")
64.61

----------
Overview of recorded Background (%) for various compounds
Molecular target: human IDO1 protein (Homo sapiens)
Construct: purchased ChemPartner Lot; No. 20160706
Test: Enzymatic IDO1 assay (Absorbance 321 assay)
Assay type: biochemical
Settings: background signal of the compound in the absorbance assay
experimental-readout: Background (%)

>>> measurement("CCCn1c(=O)c(C(=O)Nc2ccccc2N)c(O)c2ccccc21")
50.76
>>> measurement("CN(CCCNc1cc(=O)oc2ccccc12)C(=O)c1ccc(F)cc1")
46.21
>>> measurement("O=C1NN(c2ncnc3sc4c(c23)CCCC4)C(=O)c2cccc3cccc1c23")
36.33
>>> measurement("CCC(C(=O)Nc1cccc(C(C)O)c1)c1ccccc1 (centres unmarked)")
35.32
>>> measurement("N#CCn1nc(-c2ccc(Cl)cc2)c2c1-c1ccccc1C2")
57.47
>>> measurement("O=c1cc(NCCN2CCCC2)c2ccccc2o1")
42.54
>>> measurement("Cc1cc(C)c(S(=O)(=O)N2CCC(C(N)=O)CC2)cc1C")
34.87
>>> measurement("CC(C)c1ccc(O)c(C(=O)c2cnn(-c3ccccc3)c2)c1")
56.24
>>> measurement("Cc1cc(=O)oc2cc(OCCSc3ccccc3)ccc12")
56.72
>>> measurement("COc1cc(C(=O)Nc2ccc(S(N)(=O)=O)cc2)cc(OC)c1OC")
43.06
>>> measurement("O=C(COC(=O)c1ccc2ccccc2n1)c1ccc(Cl)cc1")
44.38
>>> measurement("O=C(Nc1ccccc1OCC1CCCO1)NC1CCCCC1 (centres unmarked)")
31.57
>>> measurement("CCc1ccc(OCC(=O)Nc2ccccc2C(N)=O)c(Br)c1")
35.63
>>> measurement("O=C(COc1ccc2ccccc2c1)c1ccc(Br)cc1")
55.42
>>> measurement("Cc1nc2ccccc2cc1C(=O)N/N=C/c1cccc(Cl)c1")
68.09
>>> measurement("CC1CCCN(C(C)CS(=O)(=O)c2ccc3ccccc3c2)C1 (centres unmarked)")
37.17
>>> measurement("COc1ccc2nc(C(C)O)[nH]c2c1 (centres unmarked)")
37.58
>>> measurement("Cc1cccc(C)c1N1CC(C(=O)Nc2cccc3ccccc23)CC1=O (centres unmarked)")
35.53
>>> measurement("Cc1cc2ccccc2n2c(SCC(=O)Nc3ccc(S(N)(=O)=O)cc3)nnc12")
49.90
>>> measurement("CCn1c(SCC(=O)Nc2ccccc2[N+](=O)[O-])nnc1-c1ccc(O)cc1")
35.54
>>> measurement("O=C(O)c1ccc(Cn2nnc3cc4ccccc4cc32)cc1")
48.38
>>> measurement("O=S(=O)(c1ccc(N=Cc2c(O)ccc3ccccc23)cc1)N1CCCCC1")
57.16
>>> measurement("COc1ccc2oc(C(O)c3c(C)oc4ccc(OC)cc34)cc2c1 (centres unmarked)")
43.42
>>> measurement("N#Cc1c(SCC(N)=O)nc2c(c1-c1cccnc1)CCC2")
44.80
>>> measurement("COc1ccc2ccccc2c1CNC(C)c1ccccc1 (centres unmarked)")
41.00
>>> measurement("COc1cc2sc3c(=O)[nH]c4ccccc4c3c2cc1OC")
40.56
>>> measurement("COc1ccc(CNC(=O)COc2ccc3ccccc3c2)cc1")
36.51
>>> measurement("O=c1[nH]c(CN2CCOCC2)nc2ccccc12")
38.30
>>> measurement("Cc1cc(C)c2c(N)c(C(=O)Nc3ccc(S(N)(=O)=O)cc3)sc2n1")
62.57
>>> measurement("O=C(c1ccc(OCCc2ccccc2)cc1)N1CCCC1")
35.52
>>> measurement("CCOc1nccc2sc3ccccc3c12")
40.43
>>> measurement("O=C(CSc1nnc(COc2ccc(Cl)cc2Cl)o1)Nc1ccccn1")
34.84
>>> measurement("O=C(NCCc1cccc(Cl)c1)c1cccc2ccccc12")
41.51
>>> measurement("CC(=O)Nc1ccc(NC(=O)C2CC(=O)N(c3ccccc3)C2)cc1 (centres unmarked)")
34.97
>>> measurement("O=[N+]([O-])c1ccccc1Sc1c(O)ccc2ccccc12")
49.90
>>> measurement("c1ccc(CNCC2OCCc3ccccc32)cc1 (centres unmarked)")
35.16
>>> measurement("CCn1c(SCc2nc3ccccc3[nH]2)nc2cc(C(=O)OC)ccc2c1=O")
52.04
>>> measurement("Cc1cc(-c2cccs2)c2c(N)c(C(=O)NCCc3c[nH]c4ccccc34)sc2n1")
60.62
>>> measurement("CC(Oc1ccccc1)C(=O)N1CCc2ccccc21 (centres unmarked)")
31.42
>>> measurement("Cc1onc(-c2ccccc2Cl)c1C(=O)Nc1cccc([N+](=O)[O-])c1")
37.16
>>> measurement("COc1cc(C)c(Cl)cc1S(=O)(=O)Nc1cccc(C)c1C")
35.28

----------
Molecular target: human IDO1 protein (Homo sapiens, UniProt P14902)
Construct: purchased ChemPartner Lot; No. 20160706
Sequence (P14902 whole entry): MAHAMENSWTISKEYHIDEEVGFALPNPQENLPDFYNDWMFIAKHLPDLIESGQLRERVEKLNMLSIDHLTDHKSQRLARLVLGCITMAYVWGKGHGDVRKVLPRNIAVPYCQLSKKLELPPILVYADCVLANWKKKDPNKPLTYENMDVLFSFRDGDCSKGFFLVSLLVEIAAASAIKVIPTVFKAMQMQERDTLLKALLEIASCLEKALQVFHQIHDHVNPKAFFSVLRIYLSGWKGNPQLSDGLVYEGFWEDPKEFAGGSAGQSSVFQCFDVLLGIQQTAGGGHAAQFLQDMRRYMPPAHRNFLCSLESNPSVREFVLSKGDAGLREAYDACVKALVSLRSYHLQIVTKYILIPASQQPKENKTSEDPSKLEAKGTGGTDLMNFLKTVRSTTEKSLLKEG
Experiment: Enzymatic IDO1 assay (Absorbance 321 assay)
Format: biochemical
Conditions: 50 uM, average inhibition, Table S2
experimental-readout: Avg_Inh (%) @ 50uM

>>> measurement("Cc1sc2ncnc(SCC(=O)Nc3ccc(S(N)(=O)=O)cc3)c2c1C [DCI-017]")
37.65
>>> measurement("Nc1ccccc1/C=C1/C(=O)Nc2ccccc21 [DCI-009]")
12.24
>>> measurement("Clc1ccc(N2COc3ccc4ccccc4c3C2)cc1 [DC-I028]")
82.33
>>> measurement("COc1ccc(/C=C\\c2nccc3ccccc23)cc1OC [DCI-011]")
2.22
>>> measurement("O=C(OCc1ccc(Cl)cc1)c1cc2ccccc2cc1O [DCI-003]")
35.38
>>> measurement("CC(Oc1ccccc1)C(=O)N1CCc2ccccc21 (stereo not drawn) [DCI-049]")
1.65

----------
Biological target: human IDO1 protein (Homo sapiens)
Construct: purchased ChemPartner Lot; No. 20160706
Assay: Enzymatic IDO1 assay (Absorbance 321 assay)
Type: biochemical
Settings: 50 uM, average inhibition, Table S2
experimental-readout: Avg_Inh (%) @ 50uM

>>> measurement("Cc1ccc([N+](=O)[O-])cc1NC(=O)COc1ccc2ccccc2c1Br")
40.17
>>> measurement("COc1cc(C(=O)Nc2ccc(S(N)(=O)=O)cc2)cc(OC)c1OC")
-0.32
>>> measurement("O=C1c2ccccc2C(=O)N1CNCc1cc(=O)[nH]c(=O)[nH]1")
4.51
>>> measurement("Cc1nn(C)cc1CN(C)C(=O)c1cc2ccccc2oc1=O")
2.41

----------
Molecular target: human IDO1 protein (Homo sapiens, UniProt P14902)
Construct: purchased ChemPartner Lot; No. 20160706
Test: Enzymatic IDO1 assay (Absorbance 321 assay)
Type: biochemical
Details: 50 uM, average inhibition, Table S2
Examples of molecules with documented Avg_Inh (%) @ 50uM follow.
experimental-readout: Avg_Inh (%) @ 50uM

>>> measurement("COc1cc2sc3c(=O)[nH]c4ccccc4c3c2cc1OC")
-6.51
>>> measurement("COc1ccc(C(=O)c2c[nH]cc2-c2ccccc2)cc1")
17.41
>>> measurement("Cc1onc(-c2ccccc2Cl)c1C(=O)Nc1cccc([N+](=O)[O-])c1")
28.06
>>> measurement("CCCc1[nH]nc2c1C(c1cccc(O)c1)C(C#N)=C(N)O2 (stereo not drawn)")
1.84
>>> measurement("Nc1ccc(Br)cc1C(O)c1ccc(Cl)cc1 (stereo not drawn)")
63.02
>>> measurement("Cc1cc(C)c(S(=O)(=O)N2CCC(C(N)=O)CC2)cc1C")
-2.50
>>> measurement("Cc1ccc(C)c(C(=O)CSc2ncnc3nc[nH]c23)c1")
4.76
>>> measurement("O=C(NCCc1cccc(Cl)c1)c1cccc2ccccc12")
25.72
>>> measurement("O=C1c2ccccc2NC(c2cccc([N+](=O)[O-])c2)N1O (stereo not drawn)")
4.69
